// data source = patent US9115093B2

# assay_overview: Metabolic stability with human liver microsomes
# Type: in vitro ADME
# condition_summary: pH 7.6; pooled human liver microsomes, 37° C., 1 mg/ml protein, NADPH; read-out: t1/2 INVITRO
reported_endpoint: half-life at 1 nM

N#Cc1ccc(C2C3=C(CCCC3=O)N(c3cccc(C(F)(F)F)c3)C(=O)N2C(=O)NCCO)cc1 (centres unmarked) = > 2.17 h

IN: Fill in: half-life at 1 nM of CS(=O)(=O)CCNC(=O)N1C(=O)N(c2cccc(C(F)(F)F)c2)C2=C(C(=O)CCC2)C1c1ccc(C#N)cc1 (centres unmarked) is ___
OUT: > 2.17 h

====

Quick reference: log10 IC50 of the listed items.
# assayed_system: neutrophil elastase (Homo sapiens, UniProt P08246)
# Sequence (P08246 30-247 limits assumed): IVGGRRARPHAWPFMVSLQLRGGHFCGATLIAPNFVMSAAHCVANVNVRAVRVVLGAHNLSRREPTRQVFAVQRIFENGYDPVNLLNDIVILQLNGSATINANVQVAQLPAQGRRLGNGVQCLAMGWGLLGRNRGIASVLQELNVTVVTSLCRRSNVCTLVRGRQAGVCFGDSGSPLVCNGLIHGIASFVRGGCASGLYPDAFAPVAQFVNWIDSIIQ
# assay_overview: Human Neutrophil Elastase Assay
# Type: biochemical
# Set-up: purchased Calbiochem 324681
# condition_summary: substrate MeOSuc-Ala-Ala-Pro-Val-AMC, pH 7.5, room temperature
Annotation: log10 of IC50, nM basis.

Worked cases, answers included:
CN(C(=O)CN1C(=O)N(c2cccc(C(F)(F)F)c2)C2=C(C(=O)CCC2)C1c1ccc(C#N)cc1)C1CC1 (centres unmarked) [Example 36.4] = 0.38
CC(C)(O)CNC(=O)N1C(=O)N(c2ccnc(C(F)(F)F)c2)C2=C(C(=O)CCC2)C1c1ccc(C#N)cc1 (centres unmarked) [Example 76.4] = 0.74

IN: // fetch neutrophil elastase (Homo sapiens, UniProt P08246) log10 IC50 for CN(C)CCNC(=O)N1C(=O)N(c2cccc(C(F)(F)F)c2)C2=C(C(=O)CCC2)C1c1ccc(C#N)cc1 (centres unmarked) [Example 39.8]
OUT: 0.15

IN: Return log10 IC50 measured with neutrophil elastase (Homo sapiens, UniProt P08246) given this compound: CN(Cc1ccccc1)C(=O)CN1C(=O)N(c2cccc(C(F)(F)F)c2)C2=C(C(=O)CCC2)C1c1ccc(C#N)cc1 (centres unmarked) [Example 36.47]
OUT: 1.14

IN: Requested read-out log10 IC50, target or system neutrophil elastase (Homo sapiens, UniProt P08246), entry CC1CN(C(=O)CN2C(=O)N(c3cccc(C(F)(F)F)c3)C3=C(C(=O)CCC3)C2c2ccc(C#N)cc2)CC1C (centres unmarked) [Example 36.18]
OUT: 0.60

IN: Report log10 IC50 for CNC(=O)N1C(=O)N(c2cccc(C(F)(F)F)c2)C2=C(C(=O)CCC2)C1c1ccc(C#N)cc1 (centres unmarked) [Example 39.1] tested on neutrophil elastase (Homo sapiens, UniProt P08246).
OUT: 0.08

IN: Fill in the recorded log10 IC50 for this compound, with neutrophil elastase (Homo sapiens, UniProt P08246) as test system: N#Cc1ccc(C2C3=C(CCCC3=O)N(c3cccc(C(F)(F)F)c3)C(=O)N2CC(=O)N2CCSCC2)cc1 (centres unmarked) [Example 36.28]
OUT: 0.64

IN: Lab note: need log10 IC50 with neutrophil elastase (Homo sapiens, UniProt P08246) for entry N#Cc1ccc(C2C3=C(CCCC3=O)N(c3cccc(C(F)(F)F)c3)C(=O)N2CC(=O)NCC2CCC(=O)N2)cc1 (centres unmarked) [Example 36.36] , please look it up.
OUT: 0.90

IN: Request: log10 IC50, test system neutrophil elastase (Homo sapiens, UniProt P08246), entry N#Cc1ccc(C2NC(=O)N(c3cccc(C(F)(F)F)c3)C3=C2C(=O)CC(C(N)=O)C3)cc1 (centres unmarked) [Example 12]
OUT: 1.64

IN: Given the entry COC(=O)c1cc(S(=O)(=O)N2C(=O)N(c3cccc(C(F)(F)F)c3)C3=C(C(=O)CCC3)C2c2ccc(C#N)cc2)oc1C (centres unmarked) [Example 44.13] , what log10 IC50 was observed with neutrophil elastase (Homo sapiens, UniProt P08246)?
OUT: 1.44

IN: Lab note: need log10 IC50 with neutrophil elastase (Homo sapiens, UniProt P08246) for entry N#Cc1ccc(C2C3=C(CCCC3=O)N(c3cccc(C(F)(F)F)c3)C(=O)N2CC(=O)N2CCC3(CC3)C2)cc1 (centres unmarked) [Example 36.16] , please look it up.
OUT: 0.56
